Listed here are compounds together with their documented remaining activity at 2500 µM.
Molecular target: E. coli DdlB enzyme (D-alanine:D-alanine ligase) (Escherichia coli)
Construct: made in house; host or cells: E. coli
Experiment: biochemical
Details: tested concentration 2.5 mM; read-out: DdlB RA
Provide only the numeric value, understood in %.

{"columns": ["compound", "uom", "remaining activity at 2500 µM"],
 "data": [
  ["CCc1ccc(S(N)(=O)=O)cc1N", "%", 97],
  ["O=C(O)Cc1n[nH]c(-c2ccncc2)n1", "%", 97],
  ["N#CCC(=O)N(c1ccccc1)c1ccccc1", "%", 89]
]}

Consider the additional compound presented here.
Tested on E. coli DdlB enzyme (D-alanine:D-alanine ligase) (Escherichia coli): CN(CC1CCOC1)C(=O)NC1CCCCC1 (stereo not shown) . Observed remaining activity at 2500 µM: 91

====

Target: E. coli DdlB enzyme (D-alanine:D-alanine ligase) (Escherichia coli, UniProt P07862)
Construct: made in house; host or cells: E. coli
Assay: biochemical
Settings: tested concentration 2.2 mM; read-out: DdlB RA
Experimental: The fragment library was assayed in a DdlB inhibition assay, where fragments were tested for their ability to inhibit the D-Ala-adding activity of DdlB ligase. The orthophosphate formed during the enzymatic reaction was measured spectrophotometrically using malachite green reagent. A recombinant E. coli DdlB enzyme (D-alanine:D-alanine ligase) was expressed in E. coli[11]. […] The final DMSO concentration was 5%. […] All experiments were performed in duplicates. […]
readoutType: remaining activity at 2200 µM (%)
Provide only the numeric value, understood in %.

For orientation, consider the following solved cases.
{"columns": ["molecule", "readoutType", "readoutValue"],
 "data": [
  ["CN1CCC2(CC1)CNCc1ccccc1O2", "remaining activity at 2200 µM", 94],
  ["O=S(=O)(O)c1nnc(-c2ccccc2)o1", "remaining activity at 2200 µM", 98],
  ["CC1CCCCC1NS(=O)(=O)c1ccccc1 (stereo not shown)", "remaining activity at 2200 µM", 91],
  ["O=c1c(O)c(N2CCc3ccccc3C2)c1=O", "remaining activity at 2200 µM", 90],
  ["N#Cc1cccc2cccc(S(=O)(=O)O)c12", "remaining activity at 2200 µM", 96]
]}

Consider the additional molecule presented here.
Looking up `CC(C)c1ccc(Nc2c(O)c(=O)c2=O)cc1` , I see its remaining activity at 2200 µM listed as 91

====

Biological target: E. coli DdlB enzyme (D-alanine:D-alanine ligase) (Escherichia coli)
Construct: made in house; host or cells: E. coli
Assay: biochemical
Settings: tested concentration 1.9 mM; read-out: DdlB RA
Procedure: The fragment library was assayed in a DdlB inhibition assay, where fragments were tested for their ability to inhibit the D-Ala-adding activity of DdlB ligase. The orthophosphate formed during the enzymatic reaction was measured spectrophotometrically using malachite green reagent. A recombinant E. coli DdlB enzyme (D-alanine:D-alanine ligase) was expressed in E. coli[11]. […] The final DMSO concentration was 5%. […] All experiments were performed in duplicates. […]
Listed here are compounds together with their documented remaining activity at 1900 µM.
Provide only the numeric value, understood in %.

For orientation, consider the following solved cases.
{"columns": ["compound", "remaining activity at 1900 µM (%)"],
 "data": [
  ["Cc1cccc(Nc2ncccc2S(N)(=O)=O)c1", 94],
  ["O=C(NCc1ccccc1)C1(F)CCNC1 (centres unmarked)", 97],
  ["Cc1cccc(CC(=O)Nc2cccc(C(=O)O)c2)c1", 58],
  ["Cc1cc(C)n(CCN2CCOCC2)n1", 86]
]}

Consider the additional compound presented here.
Looking up `CC(C)(C)OC(=O)n1c(B(O)O)cc2ccccc21` , I see its remaining activity at 1900 µM listed as 75

Where do the numbers come from? From paper PMC9718554.
